molecular target: human JAK2 kinase domain (JH1) (Homo sapiens, UniProt O60674); construct: recombinantly generated catalytic kinase (also known as JH1) domain of human JAK1, JAK2, JAK3 and TYK2; test: JH1 biochemical assay for JAK2 (ADP-Glo kinase assay, recombinant JH1 catalytic domain, JAK3-974 peptide, 15 μM ATP); conditions: JH1 kinase domain, ADP-Glo
Sequence (O60674 849-1124 limits assumed): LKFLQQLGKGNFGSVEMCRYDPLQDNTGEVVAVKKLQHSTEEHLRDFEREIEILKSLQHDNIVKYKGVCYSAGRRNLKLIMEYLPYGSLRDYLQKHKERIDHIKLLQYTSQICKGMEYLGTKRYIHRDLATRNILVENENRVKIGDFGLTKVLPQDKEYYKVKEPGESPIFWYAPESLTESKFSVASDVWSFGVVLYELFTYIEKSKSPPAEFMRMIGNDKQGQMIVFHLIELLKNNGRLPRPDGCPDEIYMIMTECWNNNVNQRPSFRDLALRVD
Where a name gives a salt, the structure may show the parent alone.
Catalogue of molecules with associated IC50

>>> reported_value("C[C@@H]1CN(c2ccnn3cc(-c4cccc(CC#N)n4)cc23)C(=O)[C@]1(C#N)C1CC1 [Example 125, trifluoroacetate]")
"100 to 1000 nM"
>>> reported_value("C[C@@H]1CN(c2ccnn3cc(-c4cn5c(n4)CCC5)cc23)C(=O)[C@]1(C#N)C1CC1 [Example 106, trifluoroacetate]")
"100 to 1000 nM"
>>> reported_value("C[C@@H]1CN(c2ccnn3cc(-c4c[nH]c5ncccc45)cc23)C(=O)[C@]1(C#N)C1CC1 [Example 72]")
"100 to 1000 nM"
>>> reported_value("C[C@@H]1CN(c2ccnn3cc(-c4cnn([C@@H]5CC5(F)F)c4)cc23)C(=O)[C@]1(C#N)C1CC1 (single isomer, unassigned) [Example 155]")
"100 to 1000 nM"
>>> reported_value("C[C@@H]1CN(c2nccn3nc(-c4cnn(C)c4)cc23)C(=O)[C@]1(C#N)C1CC1 [Example 216]")
"> 10000 nM"
>>> reported_value("C[C@@H]1CN(c2ccnn3cc(-c4cnn(C5CC5(F)F)c4)cc23)C(=O)[C@]1(C#N)C1CC1 (mixture of isomers) [Example 154]")
"100 to 1000 nM"
>>> reported_value("Cn1cc(-c2cc3c(N4C[C@H](C(F)F)[C@@](C#N)(C5CC5)C4=O)ccnn3c2)cn1 (racemic) [Example 152]")
"1000 to 5000 nM"
>>> reported_value("C[C@@H]1CN(c2nc(-c3ncccc3F)cn3nccc23)C(=O)[C@]1(C#N)C1CC1 [Example 212]")
"> 10000 nM"
>>> reported_value("Cn1cc(-c2cc3c(N4CC[C@@](C#N)(C5CC5)C4=O)ccnn3c2)c(F)n1 [Example 12]")
"100 to 1000 nM"
>>> reported_value("C[C@@H]1CN(c2ccnn3cc(-c4ccnc(C(F)(F)F)c4)cc23)C(=O)[C@]1(C#N)C1CC1 [Example 69]")
"1000 to 5000 nM"

Q. Request the reported IC50 associated with [2H]C([2H])([2H])n1cc(-c2cn3nccc3c(N3C[C@@H](C)[C@@](C#N)(C4CC4)C3=O)n2)cn1 [Example 201]
A. < 100 nM

Q. Request the reported IC50 associated with C[C@@H]1CN(c2ccnn3cc(-c4cccc5c4cnn5C)cc23)C(=O)[C@]1(C#N)C1CC1 [Example 54]
A. 1000 to 5000 nM

Q. Request the reported IC50 associated with C[C@@H]1CN(c2ccnn3cc(-c4cccc5cnn(C)c45)cc23)C(=O)[C@]1(C#N)C1CC1 [Example 78]
A. > 10000 nM

Q. Request the reported IC50 associated with Cc1nc(-c2cc3c(N4C[C@@H](C)[C@@](C#N)(C5CC5)C4=O)ccnn3c2)ccc1C#N [Example 119, trifluoroacetate]
A. 1000 to 5000 nM

----------
target: human JAK1 kinase domain (JH1) (Homo sapiens, UniProt P23458); construct: recombinantly generated catalytic kinase (also known as JH1) domain of human JAK1, JAK2, JAK3 and TYK2; assay: JH1 biochemical assay for JAK1 (ADP-Glo kinase assay, recombinant JH1 catalytic domain, JAK3-342 peptide, 35 μM ATP); conditions: JAK1 JH1, ADP-Glo
Sequence (P23458 875-1153 limits assumed): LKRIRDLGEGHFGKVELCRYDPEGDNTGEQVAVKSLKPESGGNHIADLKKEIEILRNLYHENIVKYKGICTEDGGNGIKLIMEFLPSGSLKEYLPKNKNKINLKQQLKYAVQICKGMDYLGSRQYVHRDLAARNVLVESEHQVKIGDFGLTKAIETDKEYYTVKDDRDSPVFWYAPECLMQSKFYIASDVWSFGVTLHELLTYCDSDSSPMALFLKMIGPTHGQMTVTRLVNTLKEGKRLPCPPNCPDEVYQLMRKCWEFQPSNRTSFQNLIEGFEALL
pIC50: −log10 of the molar value. Counter-ions that a name gives are not always drawn.
Catalogue of compounds with associated pIC50

>>> reported_value("C[C@@H]1CN(c2nc(-c3cnn([C@H]4C[C@](C)(C#N)C4)c3)cn3ncc(F)c23)C(=O)[C@]1(C#N)C1CC1")
"> 7.00"

Q. Request the reported pIC50 associated with C[C@@H]1CN(c2cc(-c3cnn(C)c3)cc3nscc23)C(=O)[C@]1(C#N)C1CC1
A. 6.00 to 7.00

Q. Request the reported pIC50 associated with C[C@@H]1CN(c2nn(-c3cnn(C(F)F)c3)c3cnccc23)C(=O)[C@]1(C#N)C1CC1
A. 6.00 to 7.00

Q. Request the reported pIC50 associated with C[C@@H]1CN(c2nc(-c3ccnc(C(F)(F)F)c3)cn3nccc23)C(=O)[C@]1(C#N)C1CC1 [Example 234, trifluoroacetate]
A. 6.00 to 7.00

Q. Request the reported pIC50 associated with C[C@@H]1CN(c2cc(-c3cnn(C)c3)cc3ncsc23)C(=O)[C@]1(C#N)C1CC1
A. > 7.00

Q. Request the reported pIC50 associated with C[C@@H]1CN(c2nc(-c3cnn(C4COC4)c3)cc3ncsc23)C(=O)[C@]1(C#N)C1CC1
A. > 7.00

Q. Request the reported pIC50 associated with C[C@@H]1CN(c2ccnc3cc(-c4cnn(C5CC5)c4)oc23)C(=O)[C@]1(C#N)C1CC1
A. 6.00 to 7.00

----------
Catalogue of compounds with associated IC50
molecular target: human JAK1 kinase domain (JH1) (Homo sapiens); construct: recombinantly generated catalytic kinase (also known as JH1) domain of human JAK1, JAK2, JAK3 and TYK2; experiment: JH1 biochemical assay for JAK1 (ADP-Glo kinase assay, recombinant JH1 catalytic domain, JAK3-342 peptide, 35 μM ATP); conditions: JAK1 JH1, ADP-Glo
Structures can show the parent of a compound that is named as a salt.

>>> reported_value("Cc1cc(-c2cn3nccc3c(N3C[C@@H](C)[C@@](C#N)(C4CC4)C3=O)n2)ccn1 [Example 241, trifluoroacetate]")
"100 to 1000 nM"

Q. Request the reported IC50 associated with C[C@@H]1CN(c2ccnn3cc(-c4cnn(C5(CC#N)CC5)c4)cc23)C(=O)[C@]1(C#N)C1CC1
A. < 100 nM

Q. Request the reported IC50 associated with C[C@@H]1CN(c2ccnn3cc(-c4cnn(C5CN(C)C5)c4)cc23)C(=O)[C@]1(C#N)C1CC1
A. 100 to 1000 nM

Q. Request the reported IC50 associated with COc1cc(-c2cn3nccc3c(N3C[C@@H](C)[C@@](C#N)(C4CC4)C3=O)n2)c(OC)nn1 [Example 253, trifluoroacetate]
A. 1000 to 5000 nM

----------
Catalogue of compounds with associated IC50
biological target: human JAK2 kinase domain (JH1) (Homo sapiens); construct: recombinantly generated catalytic kinase (also known as JH1) domain of human JAK1, JAK2, JAK3 and TYK2; test: JH1 biochemical assay for JAK2 (ADP-Glo kinase assay, recombinant JH1 catalytic domain, JAK3-974 peptide, 15 μM ATP); conditions: JH1 kinase domain, ADP-Glo
Structures can show the parent of a compound that is named as a salt.

>>> reported_value("Cn1cc(-c2cc3c(N4CCC(C#N)C4=O)ccnn3c2)cn1 (stereo not drawn) [Example 7]")
"5 to 10 µM"
>>> reported_value("CCc1ccncc1-c1cc2c(N3C[C@@H](C)[C@@](C#N)(C4CC4)C3=O)ccnn2c1 [Example 175, trifluoroacetate]")
"> 10 µM"
>>> reported_value("C[C@@H]1CN(c2ccnn3cc(-c4cn(C)cn4)cc23)C(=O)[C@]1(C#N)C1CC1 [Example 111, trifluoroacetate]")
"0.1 to 1 µM"
>>> reported_value("C[C@@H]1CN(c2ccnn3cc(-c4ccnc(C#N)c4)cc23)C(=O)[C@]1(C#N)C1CC1 [Example 93]")
"0.1 to 1 µM"
>>> reported_value("Cn1cc(-c2cc3c(N4CC[C@@](C)(C#N)C4=O)ccnn3c2)cn1 (single isomer, unassigned) [Example 38]")
"1 to 5 µM"

Consider now this further compound.
Q. Request the reported IC50 associated with C[C@@H]1CN(c2nc(-c3cnn(C)c3)cn3ncc(Cl)c23)C(=O)[C@]1(C#N)C1CC1 [Example 206]
A. 0.1 to 1 µM

----------
Catalogue of molecules with associated pIC50
biological target: human JAK2 kinase domain (JH1) (Homo sapiens); construct: recombinantly generated catalytic kinase (also known as JH1) domain of human JAK1, JAK2, JAK3 and TYK2; assay: JH1 biochemical assay for JAK2 (ADP-Glo kinase assay, recombinant JH1 catalytic domain, JAK3-974 peptide, 15 μM ATP); details: JAK2 JH1, ADP-Glo
pIC50: −log10 of the molar value. Counter-ions that a name gives are not always drawn.

Q. Request the reported pIC50 associated with C[C@@H]1CN(c2nc(-c3cnn([C@H]4C[C@H](C#N)C4)c3)cn3ncc(F)c23)C(=O)[C@]1(C#N)C1CC1
A. > 7.00

Q. Request the reported pIC50 associated with C[C@@H]1CN(c2ccnn3cc(-n4ccnc4)cc23)C(=O)[C@]1(C#N)C1CC1
A. 5.30 to 6.00

Q. Request the reported pIC50 associated with C[C@@H]1CN(c2nc(-c3cnn(C4CCOCC4)c3)cn3ncc(F)c23)C(=O)[C@]1(C#N)C1CC1
A. > 7.00

Q. Request the reported pIC50 associated with C[C@@H]1CN(c2nc(-c3cc[nH]n3)cn3nccc23)C(=O)[C@]1(C#N)C1CC1 [Example 232, trifluoroacetate]
A. 6.00 to 7.00

FYI, the data here is from patent US20260297085A1.
